Attribute: EC50
Molecular target: T1, 人LAG3抗原 (ACRO, Cat.LA3-H5222) (human, UniProt P18627 23-450)
T1 construct: Bought protein; also called human LAG3 antigen
T1 sequence (looked up): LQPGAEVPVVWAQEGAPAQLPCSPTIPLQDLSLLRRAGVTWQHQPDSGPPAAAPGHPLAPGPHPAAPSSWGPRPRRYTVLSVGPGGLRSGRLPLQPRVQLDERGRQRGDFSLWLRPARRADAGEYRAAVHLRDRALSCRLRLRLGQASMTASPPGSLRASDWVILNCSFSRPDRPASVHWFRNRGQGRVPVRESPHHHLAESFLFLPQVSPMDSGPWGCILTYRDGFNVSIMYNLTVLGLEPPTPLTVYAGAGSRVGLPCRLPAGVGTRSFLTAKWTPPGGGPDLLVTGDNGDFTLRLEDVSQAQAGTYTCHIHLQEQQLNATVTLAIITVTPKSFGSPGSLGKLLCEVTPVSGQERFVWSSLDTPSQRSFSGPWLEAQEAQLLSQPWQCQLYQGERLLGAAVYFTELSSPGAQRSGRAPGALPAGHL
Assay: indirect ELISA, coated human LAG3
Write down the numeric answer in µg/mL and omit the unit.

# count of solved cases: 2
{"binder": "hmL42人源化亲和力成熟变体 R3H9 (antibody, V domains shown) VH: QVQLVQSGAEVKKPGASVKVSCKASGYTFTDYEVHWVKQAPGQGLEWMGAIHPGSGGAAYNQKVKGKVTMTADTSISTAYMELSRLRSDDTAVYYCTSYGWNDWGQGTTVTVS VL: DIQLTQSPSFLSASVGDRVTITCKASQDVSTAVAWYQQKPGKSPKLLISWASTRHTGVPDRFAGSGSGTDFTLTISSLQPEDFATYYCQQYVDFPYTFGQGTKLEIK", "unitsText": "µg/mL", "EC50": 0.183}
{"binder": "hmL42人源化亲和力成熟变体 R3G4 (antibody, V domains shown) VH: QVQLVQSGAEVKKPGASVKVSCKASGYTFTDYEVHWVKQAPGQGLEWMGAIHPGSGGAAYNQKVKGKVTMTADTSISTAYMELSRLRSDDTAVYYCTSYGWNDWGQGTTVTVS VL: DIQLTQSPSFLSASVGDRVTITCKASQDVSTAVAWYQQKPGKSPKLLISWASTRHTGVPDRFAGSGSGTDFTLTISSLQPEDFATYYCQQYIDFPFVFGQGTKLEIK", "unitsText": "µg/mL", "EC50": 0.175}

Exam item: Item hmL42人源化亲和力成熟变体 R3C5 (antibody, V domains shown) VH: QVQLVQSGAEVKKPGASVKVSCKASGYTFTDYEVHWVKQAPGQGLEWMGAIHPGSGGAAYNQKVKGKVTMTADTSISTAYMELSRLRSDDTAVYYCTSYGWNDWGQGTTVTVS VL: DIQLTQSPSFLSASVGDRVTITCKASQDVSTAVAWYQQKPGKSPKLLISWASTRHTGVPDRFAGSGSGTDFTLTISSLQPEDFATYYCQQYWVWDYVFGQGTKLEIK has what recorded EC50?
Marked response: 0.437
